In this section we review reported cytotoxicity at 70.5 h values for a set of molecules.
- protocol.notes: Human HepG2 cell viability assay in 384 well format
- Type: toxicity, cell-based
- Parameters: dose 125 nL, time 70.5 hour; concentration not given beside the values
- measurement.parameters: HepG2 cells, read-out: Inhibition
Just the number in %, nothing appended.

Example cases with answers are listed next.
                                   molecule              value_kind  unit  readout_value
0          CCCc1nc(C)c(C(=O)Nc2cccc(C)n2)s1  cytotoxicity at 70.5 h     %           23.8
1      O=C(NCCCc1ccccn1)c1cn(CCN2CCNCC2)nn1  cytotoxicity at 70.5 h     %          -9.59
2  O=C(c1cnccn1)N1CCCC(Cc2cccc3ncccc23)C1 (stereo unspecified)  cytotoxicity at 70.5 h     %          -4.96
3  Cc1ccccc1OCCC(=O)OC(C)C(=O)Nc1sccc1C(N)=O (stereo unspecified)  cytotoxicity at 70.5 h     %          -7.64
4  CC(C)c1ncc2c(n1)CN(Cc1nc(Cc3ccccc3)no1)CC2  cytotoxicity at 70.5 h     %          -24.3

Here is another molecule to look at.
# molecule CN(CCSc1ccccc1)C(=O)c1cn2c(n1)CNCC2 ; its cytotoxicity at 70.5 h = -12.8
